assay: qHTS profiling of the MIPE4 collection as inhibitors of Plasmodium falciparum (3D7) proliferation (AID 743344);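 note: scaled between DMSO vehicle wells and 0.29 µM artemisinin as full inhibition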; conditions: P. falciparum 3D7 in erythrocytes, SYBR Green DNA fluorescence, 72 h; at 28.5 µM unless noted
endpoint: parasite growth, % of DMSO control (%)

smiles_str	assay_value
NC(=O)N1c2ccccc2CC(=O)c2ccccc21	92.2
Cc1ncc([N+](=O)[O-])n1CCO	88.2
CN1CCN(c2c(F)cc3c(=O)c(C(=O)O)cn4c3c2OCN4C)CC1	90.8

---

test system: CP252; assay: qHTS profiling for inhibitors of Plasmodium falciparum proliferation (AID 504749); note: nearly all actives have a fitted effect of over 60% in size; conditions: P. falciparum in erythrocytes, SYBR Green DNA, 72 h; series mostly up to 28.7 µM
Inconclusive results are not listed. Activity calls are given as the source filed them. Calls come from the whole dose curve; as a rule, active = well fitted inhibition curve with a large enough effect; inconclusive = small, poorly fitted or top-dose-only effect; inactive = flat fitted curve, though single readings scatter.
Possible outcomes: TRUE (active), FALSE (inactive)

compound	label
COc1cc(NCc2ccc3nc(N)nc(N)c3c2C)cc(OC)c1OC	TRUE
COc1ccc2cc3[n+](cc2c1OC)CCc1cc2c(cc1-3)OCO2	TRUE
CC1=NN(c2ccccc2)C(=O)C1	FALSE
NC(N)=NC(N)=NCCc1ccccc1	FALSE
CCOC(=O)c1ccc(C#Cc2ccc3c(c2)C(C)(C)CCS3)nc1	FALSE
CC(C)NCC(O)c1ccc(NS(C)(=O)=O)cc1 (stereo unspecified)	FALSE

---

System: CP238
Assay: qHTS profiling for inhibitors of Plasmodium falciparum proliferation (AID 504749); note: nearly all actives have a fitted effect of over 60% in size
Details: P. falciparum in erythrocytes, SYBR Green DNA, 72 h; series mostly up to 28.7 µM
Experimental: NIH National Institute of Allergy and Infectious Diseases [NIAID] NIH Chemical Genomics Center [NCGC] […] Because mature erythrocytes lack DNA, only Plasmodium-derived DNA is detected. NCGC Assay Protocol Summary: The SYBR Green viability assay was adapted from a method described previously (Plouffe et al., 2008). […] The following morning, fluorescence intensity at 485(14) nm excitation and 535(25) nm emission wavelengths was measured on an EnVision (Perkin Elmer) plate reader. […]
Records with an inconclusive call do not appear. Calls of active or inactive are those of the source. Calls come from the whole dose curve; as a rule, active = well fitted inhibition curve with a large enough effect; inconclusive = small, poorly fitted or top-dose-only effect; inactive = flat fitted curve, though single readings scatter.
Outcomes: class 1 (active), class 0 (inactive)

compound	target_desc	label
CNNCc1ccc(C(=O)NC(C)C)cc1	CP238	class 0
COc1ccc2cc3[n+](cc2c1OC)CCc1cc2c(cc1-3)OCO2	CP238	class 1
COc1ccc(-c2ccc3cc(C(=O)O)ccc3c2)cc1C12CC3CC(CC(C3)C1)C2	CP238	class 0
N=C(N)c1ccc(OCCCCCOc2ccc(C(=N)N)cc2)cc1	CP238	class 1
CC(C)NCC(O)c1ccc(NS(C)(=O)=O)cc1 (stereo not given)	CP238	class 0
CCc1cc(C(N)=S)ccn1	CP238	class 0
CC1=NN(c2ccccc2)C(=O)C1	CP238	class 0
CN(C)CCc1c[nH]c2ccc(CS(=O)(=O)N3CCCC3)cc12	CP238	class 0
CCc1c2c(nc3ccc(OC(=O)N4CCC(N5CCCCC5)CC4)cc13)-c1cc3c(c(=O)n1C2)COC(=O)[C@]3(O)CC	CP238	class 0
CN1CCN(c2c(F)cc3c(=O)c(C(=O)O)cn(CCF)c3c2F)CC1	CP238	class 0
Cc1ncc([N+](=O)[O-])n1CCO	CP238	class 0
NC(=O)N1c2ccccc2CC(=O)c2ccccc21	CP238	class 0
OC(Cn1cncn1)(Cn1cncn1)c1ccc(F)cc1F	CP238	class 0
CCOC(=O)c1ccc(OC(=O)CCCCCN=C(N)N)cc1	CP238	class 0
CC(C)(C#N)c1cc(Cn2cncn2)cc(C(C)(C)C#N)c1	CP238	class 0
Cc1ccnc2c1NC(=O)c1cccnc1N2C1CC1	CP238	class 0
S=P(N1CC1)(N1CC1)N1CC1	CP238	class 0
CCCc1nc(C)c2c(=O)[nH]c(-c3cc(S(=O)(=O)N4CCN(CC)CC4)ccc3OCC)nn12	CP238	class 0
Nc1nc(N)nc(-c2cc(Cl)ccc2Cl)n1	CP238	class 0
CNC1CCCN(c2c(F)cc3c(=O)c(C(=O)O)cn(C4CC4)c3c2OC)C1 (stereo not given)	CP238	class 0

---

experiment: qHTS profiling of the MIPE4 collection as inhibitors of Plasmodium falciparum (DD2) proliferation (Rep 2) (AID 743346); details: P. falciparum Dd2 in erythrocytes, SYBR Green DNA, 72 h; at 28.5 µM unless noted
endpoint: parasite growth, % of control (lower = inhibition) (%)

compound	scale_unit	assay_value
NC(=O)N1c2ccccc2CC(=O)c2ccccc21	%	187
OCc1ccc(-c2nn(Cc3ccccc3)c3ccccc23)o1	%	73.7
CC(C)NCC(O)c1ccc(NS(C)(=O)=O)cc1 (stereo unspecified)	%	30.5
CCC(=O)O[C@]1(C(=O)SCF)[C@H](C)C[C@H]2[C@@H]3C[C@H](F)C4=CC(=O)C=C[C@]4(C)[C@@]3(F)[C@@H](O)C[C@@]21C	%	44.9
CCOc1cc(N)c(Cl)cc1C(=O)NCC1CN(Cc2ccc(F)cc2)CCO1 (stereo unspecified)	%	178
O=C(O)C1CCCN(CCC=C(c2ccccc2)c2ccccc2)C1 (stereo unspecified)	%	72.1
CCN(CC)CCn1c(=O)c(Cc2ccc(OC)cc2)nc2ccccc21	%	28.1
S=P(N1CC1)(N1CC1)N1CC1	%	15.4
CCn1cc(C(=O)O)c(=O)c2cc(F)c(N3CCNCC3)nc21	%	53.9
C[C@@H](NCCCc1cccc(C(F)(F)F)c1)c1cccc2ccccc12	%	10.9
CCOC(=O)c1ccc(C#Cc2ccc3c(c2)C(C)(C)CCS3)nc1	%	29.1

---

assay: qHTS of pediatric cancer cell lines to identify multiple opportunities for drug repurposing: Primary screen for DAOY cells (AID 1347090); details: DAOY medulloblastoma viability, CellTiter-Glo luminescence, 48 h; series mostly up to 46 µM; note: nearly all actives have a fitted effect of over 55% in size; note: potency is the fitted concentration of half-maximal effect
Records with an inconclusive call do not appear. The source made the active and inactive calls. The call rests on the fitted dose curve; in most records, active means well fitted cell-killing curve with a large enough effect; inconclusive means small, poorly fitted or top-dose-only effect; inactive means flat fitted curve, though single readings scatter.
endpoint: Potency

molecule	endpoint	assay_value
COc1ccc2c(c1)c(CC(=O)OCC(=O)O)c(C)n2C(=O)c1ccc(Cl)cc1	Potency	inactive
CO[C@@]12[C@H](COC(N)=O)C3=C(C(=O)C(C)=C(N)C3=O)N1C[C@@H]1N[C@@H]12	Potency	9.35 µM (active)
O=C(O)CSCC(=O)NC1CCSC1=O (stereo not drawn)	Potency	inactive
CN(C)CCc1c[nH]c2ccc(C[C@H]3COC(=O)N3)cc12	Potency	inactive
Nc1nc(N)c2nc(CNc3ccc(C(=O)NC(CCC(=O)O)C(=O)O)cc3)cnc2n1 (stereo not drawn)	Potency	inactive
Cc1ccnc2c1NC(=O)c1cccnc1N2C1CC1	Potency	inactive
O=C(O)c1cn(C2CC2)c2cc(N3CCNCC3)c(F)cc2c1=O	Potency	inactive
O=c1oc2c(O)c(O)cc3c(=O)oc4c(O)c(O)cc1c4c23	Potency	inactive
CNNCc1ccc(C(=O)NC(C)C)cc1	Potency	inactive
NC(=O)c1cccc(N)c1	Potency	inactive
COc1cc2nc(N3CCCN(C)CC3)nc(NC3CCN(Cc4ccccc4)CC3)c2cc1OC	Potency	18.7 µM (active)
C[C@@H]1CN(c2c(F)c(N)c3c(=O)c(C(=O)O)cn(C4CC4)c3c2F)C[C@H](C)N1	Potency	inactive
CO[C@@H]1[C@@H](OC(N)=O)[C@@H](O)[C@H](Oc2ccc3c(O)c(NC(=O)c4ccc(O)c(CC=C(C)C)c4)c(=O)oc3c2C)OC1(C)C	Potency	inactive

---

tested on: CP269; assay: qHTS profiling for inhibitors of Plasmodium falciparum proliferation (AID 504749); note: nearly all actives have a fitted effect of over 60% in size; settings: P. falciparum in erythrocytes, SYBR Green DNA, 72 h; series mostly up to 28.7 µM
Results filed as inconclusive are left out. The source made the active and inactive calls. Calls follow the shape of the dose curve; as a rule, active = well fitted inhibition curve with a large enough effect; inconclusive = small, poorly fitted or top-dose-only effect; inactive = flat fitted curve, though single readings scatter.
Possible outcomes: active, inactive

compound	label
COc1ccc(-c2ccc3cc(C(=O)O)ccc3c2)cc1C12CC3CC(CC(C3)C1)C2	inactive
O=C(O)c1cc(=O)[nH]c(=O)[nH]1	inactive
CC[C@H](C)C(=O)O[C@H]1C[C@@H](C)C=C2C=C[C@H](C)[C@H](CC[C@@H]3C[C@@H](O)CC(=O)O3)[C@H]21	inactive
CC(C)NCC(O)c1ccc(NS(C)(=O)=O)cc1 (configuration not stated)	inactive
COc1cc2c(Nc3ccc(Br)cc3F)ncnc2cc1OCC1CCN(C)CC1	active
Nc1nc(N)nc(-c2cc(Cl)ccc2Cl)n1	inactive
CC1=NN(c2ccccc2)C(=O)C1	inactive
CC(C)(C#N)c1cc(Cn2cncn2)cc(C(C)(C)C#N)c1	inactive
Nc1nc(N)c2nc(CNc3ccc(C(=O)NC(CCC(=O)O)C(=O)O)cc3)cnc2n1 (configuration not stated)	inactive
COc1ccc2cc3[n+](cc2c1OC)CCc1cc2c(cc1-3)OCO2	active
NC(=O)c1cccnc1	inactive
COc1ncnc(NS(=O)(=O)c2ccc(N)cc2)c1OC	inactive
Cc1ccnc2c1NC(=O)c1cccnc1N2C1CC1	inactive
CN1CCN(c2c(F)cc3c(=O)c(C(=O)O)cn(CCF)c3c2F)CC1	inactive
N=C(N)c1ccc(OCCCCCOc2ccc(C(=N)N)cc2)cc1	active
CCc1c2c(nc3ccc(OC(=O)N4CCC(N5CCCCC5)CC4)cc13)-c1cc3c(c(=O)n1C2)COC(=O)[C@]3(O)CC	inactive
CC(N)C12CC3CC(CC(C3)C1)C2 (configuration not stated)	inactive
